# TARGET_OR_SYSTEM: SMARCA4 (Homo sapiens, UniProt P51532)
# Sequence (P51532 whole entry): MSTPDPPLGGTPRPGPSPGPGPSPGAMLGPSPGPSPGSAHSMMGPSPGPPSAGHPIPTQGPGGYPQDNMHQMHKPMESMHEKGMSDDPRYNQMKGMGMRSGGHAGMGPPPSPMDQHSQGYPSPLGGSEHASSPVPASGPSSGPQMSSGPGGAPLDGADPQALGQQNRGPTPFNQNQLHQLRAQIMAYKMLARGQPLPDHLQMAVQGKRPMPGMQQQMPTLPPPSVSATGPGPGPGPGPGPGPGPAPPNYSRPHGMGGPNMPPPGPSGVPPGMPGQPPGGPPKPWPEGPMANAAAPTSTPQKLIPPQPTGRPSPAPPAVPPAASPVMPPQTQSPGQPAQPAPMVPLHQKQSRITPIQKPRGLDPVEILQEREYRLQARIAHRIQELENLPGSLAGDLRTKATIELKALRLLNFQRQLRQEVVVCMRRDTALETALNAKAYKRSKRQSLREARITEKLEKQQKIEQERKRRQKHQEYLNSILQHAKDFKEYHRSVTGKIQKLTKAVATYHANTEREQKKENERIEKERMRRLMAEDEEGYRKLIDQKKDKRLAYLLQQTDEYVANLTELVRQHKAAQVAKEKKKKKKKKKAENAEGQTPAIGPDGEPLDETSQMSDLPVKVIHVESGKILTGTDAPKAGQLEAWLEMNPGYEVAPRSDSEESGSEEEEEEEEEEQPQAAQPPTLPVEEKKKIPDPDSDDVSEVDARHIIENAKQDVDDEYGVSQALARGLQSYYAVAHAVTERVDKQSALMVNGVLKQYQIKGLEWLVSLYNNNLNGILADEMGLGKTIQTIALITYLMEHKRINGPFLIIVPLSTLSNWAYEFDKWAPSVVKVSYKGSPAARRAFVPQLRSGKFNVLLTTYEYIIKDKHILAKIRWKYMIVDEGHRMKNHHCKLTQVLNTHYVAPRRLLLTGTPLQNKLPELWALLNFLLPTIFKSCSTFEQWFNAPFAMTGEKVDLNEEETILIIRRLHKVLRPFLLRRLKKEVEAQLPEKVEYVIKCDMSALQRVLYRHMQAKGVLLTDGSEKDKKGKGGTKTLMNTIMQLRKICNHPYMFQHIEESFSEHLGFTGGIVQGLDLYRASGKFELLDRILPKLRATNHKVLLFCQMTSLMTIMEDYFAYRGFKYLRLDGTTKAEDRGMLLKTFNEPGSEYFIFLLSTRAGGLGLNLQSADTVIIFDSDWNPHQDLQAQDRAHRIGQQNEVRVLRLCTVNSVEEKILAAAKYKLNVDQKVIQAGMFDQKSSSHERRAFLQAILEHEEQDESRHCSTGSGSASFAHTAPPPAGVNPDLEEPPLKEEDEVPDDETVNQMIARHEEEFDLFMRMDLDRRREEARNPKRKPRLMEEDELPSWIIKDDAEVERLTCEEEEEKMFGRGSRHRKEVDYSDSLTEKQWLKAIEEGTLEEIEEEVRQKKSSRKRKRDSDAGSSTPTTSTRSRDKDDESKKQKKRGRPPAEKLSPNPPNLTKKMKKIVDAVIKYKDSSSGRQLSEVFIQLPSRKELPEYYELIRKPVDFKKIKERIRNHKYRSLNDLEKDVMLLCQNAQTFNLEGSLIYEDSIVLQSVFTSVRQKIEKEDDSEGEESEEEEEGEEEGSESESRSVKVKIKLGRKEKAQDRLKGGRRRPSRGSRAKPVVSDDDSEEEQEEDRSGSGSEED
# MEASUREMENT_PROTOCOL: SMARCA4 degradation in HeLa cells (Western blot)
# Assay type: cell-based
# Set-up: endogenous in cells
# CONDITION_NOTES: 80 nM, 4 hours, read-out: Degradation rate of SMARCA4 in HeLa cells (%)
MEASURED_QUANTITY: Dmax at 0.08 µM
For clarity, give the value followed by its unit.

Nc1nnc(-c2ccccc2O)cc1C#CC1CCC2(CC1)CC(N1CC3(CCc4cc(F)c(C(=O)N[C@H]5CCC(=O)NC5=O)cc4O3)C1)C2 (stereo partly drawn) [SM-P-9]; 21%
Nc1nnc(-c2ccccc2O)cc1C#CC1CCC2(CC1)CC(N1CCC3(CCc4ccc(NC5CCC(=O)NC5=O)cc4O3)CC1)C2 (stereo not drawn) [SM-P-24]; -1%
Cn1c(=O)n(C2CCC(=O)NC2=O)c2cc3c(cc21)OC1(CC3)CCN(C2CC3(CCC(C#Cc4cc(-c5ccccc5O)nnc4N)CC3)C2)CC1 (stereo not drawn) [SM-P-1]; 98%

Req: Respond only with Dmax at 0.08 µM recorded for Nc1nnc(-c2ccccc2O)cc1C#CC1CCC2(CC1)CC(N1CCC3(CCc4cc(F)c(C(=O)N[C@H]5CCC(=O)NC5=O)cc4O3)CC1)C2 (stereo partly drawn) [SM-P-12]
Resp: 24%

Req: Give reported Dmax at 0.08 µM value for Nc1nnc(-c2ccccc2O)cc1C#CC1CCC2(CC1)CC(N1CCC3(CC1)CCC1(CC3)COc3c1ccc1c3CN(C3CCC(=O)NC3=O)C1=O)C2 (stereo not drawn) [SM-P-2]
Resp: 99%

Req: Give the reported value of Dmax at 0.08 µM for this record: Nc1nnc(-c2ccccc2O)cc1C#CC1CCC2(CC1)CC(N1CCC3(CCc4cc(C(=O)N[C@H]5CCC(=O)NC5=O)c(F)cc4O3)CC1)C2 (stereo partly drawn) [SM-P-7]
Resp: 28%

* * *

Known pIC50 of a selection of compounds
# System: T-47D cells
# MEASUREMENT_PROTOCOL: Inhibition of cell proliferation in T-47D cells (CCK-8)
# Type: cell-based
# CONDITION_NOTES: Homo sapiens, T47D, 144 h, 6 days treatment, CCK-8 cell viability
pIC50 is defined as minus the log10 of a concentration measured in mol/L.

Req: For the compound O=C1CCC(N2Cc3c(ccc4c3OCC43CCC4(CCN(CC5CCN(c6ccc([C@@H]7c8ccc(O)cc8CC[C@@H]7c7ccccc7)cc6)CC5)CC4)CC3)C2=O)C(=O)N1 (stereo partly shown) , give its reported pIC50.
Resp: 8.43

Req: Identify pIC50 associated with the compound O=C1CCC(Nc2ccc3c(c2)OC[C@@H]2CN(C4CCC5(CC4)CN(c4ccc([C@@H]6c7ccc(O)cc7CC[C@@H]6c6ccccc6)cc4)C5)CCN32)C(=O)N1 (stereo partly shown)
Resp: 7.60

Req: Entry O=C1CCC(N2Cc3c(ccc4c3OCC43CCC4(CC3)CN(CC3CCN(c5ccc([C@@H]6c7ccc(O)cc7CC[C@@H]6c6ccccc6)cc5)CC3)C4)C2=O)C(=O)N1 (stereo partly shown) needs its pIC50 filled in; supply it.
Resp: 8.79

Req: Read off the recorded pIC50 for Cn1c(=O)n(C2CCC(=O)NC2=O)c2cc3c(cc21)C1(CCN(C2CCN(C(=O)C4CCN(c5ccc([C@@H]6c7ccc(O)cc7CC[C@@H]6c6ccccc6)cc5)CC4)CC2)CC1)CO3 (stereo partly shown)
Resp: 9.09

Req: Return reported pIC50. Input compound: O=C1CCC(Nc2ccc3c(c2)COC[C@H]2CN(CC4CCC(OC5CCN(c6ccc([C@@H]7c8ccc(O)cc8CC[C@@H]7c7ccccc7)cc6)CC5)CC4)CCN32)C(=O)N1 (single isomer, unassigned)
Resp: 7.34

Req: Provide pIC50 value for the following compound: C[C@@H]1Cc2cc(O)ccc2C(c2c(F)cc(N3CCC4(CC3)CC(N3CC5(CCC6(CC5)COc5c6ccc6c5CN(C5CCC(=O)NC5=O)C6=O)C3)C4)cc2F)N1CC(F)F (stereo partly shown)
Resp: 8.81

Req: Answer with the recorded pIC50 for the compound listed here: Cn1c(=O)n(C2CCC(=O)NC2=O)c2ccc3c(c21)C1(CCN(C[C@H]2CC[C@@H](OC4CCN(c5ccc([C@@H]6c7ccc(O)cc7CC[C@@H]6c6ccccc6)cc5)CC4)CC2)CC1)CO3 (stereo partly shown)
Resp: 7.85
